Numbers sourced from BigSolDB 2.1.

# Condition set: in isopropanol, 303.15 K
Parameter: solubility (mole fraction)
Would you mind answering with just the numeric figure?

Ask | Requested read-out: solubility (mole fraction). Entry: `CO[C@@]1(NC(=O)CSCC#N)C(=O)N2C(C(=O)[O-])=C(CSc3nnnn3C)CS[C@@H]21.[Na+]`
Reply | 0.00017

----------
# Condition set: in n-propanol, 278.15 K
Parameter: solubility (mole fraction)
Give your answer as a number; write no unit.

Ask | // solubility (mole fraction) lookup, key: `CO[C@@]1(NC(=O)CSCC#N)C(=O)N2C(C(=O)[O-])=C(CSc3nnnn3C)CS[C@@H]21.[Na+]`
Reply | 6.12e-05
